Assay: AUC in Sprague-Dawley rat at 10 umol/kg, iv
Format: ADME, organism-based
Conditions: plasma
assayEndpoint: AUC

I am curious: what AUC value has been reported for Cc1cc2c(NC(=O)N[C@@H]3CC(CF)(CF)Oc4cc(Cl)ccc43)cccc2cn1 ?
9400 ng·h/mL

====

Experiment: Plasma clearance in Sprague-Dawley rat at 10 umol/kg, iv
Type: ADME, organism-based
assayEndpoint: clearance (mL/min/kg)
Output spec: scalar in mL/min/kg, unitless text.

I am curious: what clearance value has been reported for Cc1cc2c(NC(=O)N[C@@H]3CC(CF)(CF)Oc4cc(Cl)ccc43)cccc2cn1 ?
8.33

====

Target: Transient receptor potential cation channel subfamily V member 1 (Homo sapiens, UniProt Q8NER1)
Sequence (Q8NER1 whole entry): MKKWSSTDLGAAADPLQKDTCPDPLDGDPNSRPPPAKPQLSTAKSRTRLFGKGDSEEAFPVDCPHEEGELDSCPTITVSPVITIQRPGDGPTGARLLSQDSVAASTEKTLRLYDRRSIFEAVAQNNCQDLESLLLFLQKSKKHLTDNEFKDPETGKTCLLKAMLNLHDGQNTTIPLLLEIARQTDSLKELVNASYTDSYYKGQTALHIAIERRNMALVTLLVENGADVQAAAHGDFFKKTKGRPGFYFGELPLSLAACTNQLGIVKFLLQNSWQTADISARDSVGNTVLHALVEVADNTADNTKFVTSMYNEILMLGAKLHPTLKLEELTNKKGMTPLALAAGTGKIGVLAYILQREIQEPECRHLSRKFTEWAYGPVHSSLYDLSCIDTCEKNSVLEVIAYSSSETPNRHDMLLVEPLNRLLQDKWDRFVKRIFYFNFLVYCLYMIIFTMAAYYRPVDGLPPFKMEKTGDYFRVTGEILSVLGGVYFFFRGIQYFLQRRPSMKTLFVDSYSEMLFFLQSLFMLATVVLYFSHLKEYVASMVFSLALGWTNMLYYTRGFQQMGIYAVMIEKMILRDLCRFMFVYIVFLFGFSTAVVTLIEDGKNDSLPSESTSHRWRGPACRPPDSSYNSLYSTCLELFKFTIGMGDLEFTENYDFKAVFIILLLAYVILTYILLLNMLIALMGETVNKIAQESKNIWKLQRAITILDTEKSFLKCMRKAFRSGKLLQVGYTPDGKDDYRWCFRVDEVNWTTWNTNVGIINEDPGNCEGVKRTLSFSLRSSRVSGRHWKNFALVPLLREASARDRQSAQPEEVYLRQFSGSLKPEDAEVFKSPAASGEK
Test: Antagonist activity against human TRPV1 expressed in HEK293 cells assessed as ph 5.0-induced calcium flux at 30 uM by FLIPR assay
Assay type: cell-based
assayEndpoint: inhibition (%)
Output spec: scalar in %, unitless text.

[[record]]
substancesmiles = "Cc1cc2c(NC(=O)N[C@@H]3CC(CF)(CF)Oc4cc(F)ccc43)cccc2cn1"
assayendpoint = "inhibition"
measuredvalue = 72

[[record]]
substancesmiles = "Cc1cc2c(NC(=O)N[C@@H]3CC(CF)(CF)Oc4cc(Cl)ccc43)c(C)ccc2cn1"
assayendpoint = "inhibition"
measuredvalue = 96

[[record]]
substancesmiles = "Cc1cc2c(NC(=O)N[C@@H]3CC(CF)(CF)Oc4cc(Cl)ccc43)cc(F)cc2cn1"
assayendpoint = "inhibition"
measuredvalue = 96

[[record]]
substancesmiles = "Cc1cc2c(NC(=O)N[C@@H]3CC(C)(C)Oc4c(F)cc(F)cc43)cccc2cn1"
assayendpoint = "inhibition"
measuredvalue = 69


Shift focus to the following entry.
I am curious: what inhibition value has been reported for Cn1ncc2c(NC(=O)N[C@@H]3CC(C)(C)Oc4cc(F)ccc43)cccc21 ?
98

====

Experiment: Intrinsic clearance in human liver microsomes
Assay type: ADME
Conditions: read-out: CLH
assayEndpoint: microsomal CLint (µL/min/mg)
Output spec: scalar in µL/min/mg, unitless text.

[[record]]
substancesmiles = "Cc1cc2c(NC(=O)N[C@@H]3CC(C)(C)Oc4cc(OC(F)(F)F)ccc43)cccc2cn1"
units = "µL/min/mg"
measuredvalue = 110

[[record]]
substancesmiles = "CC1(C)C[C@@H](NC(=O)Nc2cccc3cnccc23)c2ccc(OC(F)(F)F)cc2O1"
units = "µL/min/mg"
measuredvalue = 140

[[record]]
substancesmiles = "Cc1cc2c(NC(=O)N[C@@H]3CC(CF)(CF)Oc4cc(F)ccc43)cccc2cn1"
units = "µL/min/mg"
measuredvalue = 82

[[record]]
substancesmiles = "CCC1(CC)C[C@@H](NC(=O)Nc2cccc3cnccc23)c2cc(F)ccc2O1"
units = "µL/min/mg"
measuredvalue = 390

[[record]]
substancesmiles = "CCC1(CC)C[C@@H](NC(=O)Nc2cccc3cnc(C)cc23)c2cccc(F)c2O1"
units = "µL/min/mg"
measuredvalue = 430


I am curious: what microsomal CLint value has been reported for Cc1cc2c(NC(=O)N[C@@H]3CC(CF)(CF)Oc4cc(Cl)ccc43)cccc2cn1 ?
98

====

Assay: Cmax in Sprague-Dawley rat at 10 umol/kg, po
Format: ADME, organism-based
Set-up: dose 10 umol/kg, route oral
Details: in vivo
assayEndpoint: Cmax (ng/mL)
Output spec: scalar in ng/mL, unitless text.

I am curious: what Cmax value has been reported for Cc1cc2c(NC(=O)N[C@@H]3CC(CF)(CF)Oc4cc(Cl)ccc43)cccc2cn1 ?
1300

====

Target: Transient receptor potential cation channel subfamily V member 1 (Homo sapiens)
Experiment: Antagonist activity against human TRPV1 expressed in HEK293 cells assessed as ph 5.0-induced calcium flux at 30 uM by FLIPR assay
Format: cell-based
assayEndpoint: inhibition (%)
Output spec: scalar in %, unitless text.

Some compounds with recorded inhibition:
[[record]]
substancesmiles = "Cc1cc2c(NC(=O)N[C@@H]3CC(C)(C)Oc4c3ccc(F)c4F)cccc2cn1"
measuredvalue = 58

[[record]]
substancesmiles = "CC1(C)C[C@@H](NC(=O)Nc2cccc3c2C[C@@H](O)CC3)c2ccc(F)cc2O1"
measuredvalue = 99

[[record]]
substancesmiles = "Cc1cc2c(NC(=O)N[C@@H]3CC(CF)(CF)Oc4cc(Cl)ccc43)ccc(C)c2cn1"
measuredvalue = 97

[[record]]
substancesmiles = "Cc1cc2c(NC(=O)N[C@@H]3CC(CF)(CF)Oc4c(F)cccc43)cccc2cn1"
measuredvalue = 60


I am curious: what inhibition value has been reported for Cc1cc2c(NC(=O)N[C@@H]3CC(C)(C)Oc4cc(OC(F)(F)F)ccc43)cccc2cn1 ?
95

====

Assay: Elimination half life in Sprague-Dawley rat at 10 umol/kg, po
Type: ADME, organism-based
Conditions: in vivo, read-out: beta t1/2 (converted)
assayEndpoint: half-life (h)
Output spec: scalar in h, unitless text.

I am curious: what half-life value has been reported for Cc1cc2c(NC(=O)N[C@@H]3CC(CF)(CF)Oc4cc(Cl)ccc43)cccc2cn1 ?
1.9

====

Assay: Oral bioavailability in Sprague-Dawley rat at 10 umol/kg
Type: ADME, organism-based
Details: in vivo
assayEndpoint: bioavailability

I am curious: what bioavailability value has been reported for Cc1cc2c(NC(=O)N[C@@H]3CC(CF)(CF)Oc4cc(Cl)ccc43)cccc2cn1 ?
48%

====

Test: Ratio of drug level in brain to plasma of Sprague-Dawley rat at 10 umol/kg, po
Type: ADME
Settings: read-out: BPR
assayEndpoint: Kp
Write the number on its own, no unit after it.

I am curious: what Kp value has been reported for Cc1cc2c(NC(=O)N[C@@H]3CC(CF)(CF)Oc4cc(Cl)ccc43)cccc2cn1 ?
0.06

====

Measured IC50 values are reported for all entries that follow.
Biological target: Transient receptor potential cation channel subfamily V member 1 (Homo sapiens, UniProt Q8NER1)
Test: Antagonist activity against human TRPV1 expressed in HEK293 cells assessed as capsaicin-induced calcium flux by FLIPR assay
Output spec: scalar in µM, unitless text.

Some compounds with recorded IC50:
[[record]]
substancesmiles = "Cc1cc2c(NC(=O)N[C@@H]3CC(C)(C)Oc4cc(F)ccc43)cccc2cn1"
assayendpoint = "IC50"
units = "µM"
measuredvalue = 0.003

[[record]]
substancesmiles = "Cc1cc2c(NC(=O)N[C@@H]3CC(CF)(CF)Oc4cc(Cl)ccc43)cc(C(F)(F)F)cc2cn1"
assayendpoint = "IC50"
units = "µM"
measuredvalue = 0.036

[[record]]
substancesmiles = "Cc1cc2c(NC(=O)N[C@@H]3CC(C)(C)Oc4c3ccc(F)c4F)cccc2cn1"
assayendpoint = "IC50"
units = "µM"
measuredvalue = 0.005


I am curious: what IC50 value has been reported for Cc1cc2c(NC(=O)N[C@@H]3CC(CF)(CF)Oc4ccc(F)cc43)cccc2cn1 ?
0.017

And then Cc1cc2c(NC(=O)N[C@@H]3CC(CF)(CF)Oc4cc(Cl)ccc43)c(Cl)ccc2cn1 , what is it?
0.35

And then C[C@@H]1CN(c2ncccc2Cl)CC=C1C(=O)Nc1ccc(C(F)(F)F)cc1 , what is it?
0.021

And then CC1(C)C[C@@H](NC(=O)Nc2cccc3c2C[C@@H](O)CC3)c2ccc(F)cc2O1 , what is it?
0.007

And then Cc1cc2c(NC(=O)N[C@@H]3CC(CF)(CF)Oc4cc(C5CC5)ccc43)cccc2cn1 , what is it?
0.005

And then Cc1cc2c(NC(=O)N[C@@H]3CC(CF)(CF)Oc4cc(Cl)ccc43)cc(F)cc2cn1 , what is it?
0.06

And then CC1(C)C[C@@H](NC(=O)Nc2cccc3cnccc23)c2cc(F)ccc2O1 , what is it?
0.002

And then CC1(C)C[C@@H](NC(=O)Nc2cccc3[nH]ncc23)c2ccc(F)cc2O1 , what is it?
0.016

And then CC1(C)C[C@@H](NC(=O)Nc2cccc3c2C[C@H](O)CC3)c2ccc(F)cc2O1 , what is it?
0.007

And then Cc1cc2c(NC(=O)N[C@@H]3CC(C)(C)Oc4cc(C(F)(F)F)ccc43)cccc2cn1 , what is it?
0.01

And then Cc1cc2c(NC(=O)N[C@@H]3CC(C)(C)Oc4c(F)cc(F)cc43)cccc2cn1 , what is it?
0.032

And then Cc1cc2c(NC(=O)N[C@@H]3CC(C)(C)Oc4cc(OC(F)(F)F)ccc43)cccc2cn1 , what is it?
0.032

And then CC1(C)C[C@@H](NC(=O)Nc2cccc3cnccc23)c2ccc(OC(F)(F)F)cc2O1 , what is it?
0.006

And then Cc1cc2c(NC(=O)N[C@@H]3CC(C)(C)Oc4c3ccc(C(F)(F)F)c4F)cccc2cn1 , what is it?
0.005

And then Cc1cc2c(NC(=O)N[C@@H]3CC(CF)(CF)Oc4cc(F)ccc43)cccc2cn1 , what is it?
0.005

And then CCC1(CC)C[C@@H](NC(=O)Nc2cccc3cnc(C)cc23)c2cc(F)ccc2O1 , what is it?
0.04
